Source of measurements: patent US20250270304A1

Target: T1, Activin B (Homo sapiens (Human), UniProt P09529 293-407)
T1 construct: also called Mature Activin B; mature Activin B
T1 sequence: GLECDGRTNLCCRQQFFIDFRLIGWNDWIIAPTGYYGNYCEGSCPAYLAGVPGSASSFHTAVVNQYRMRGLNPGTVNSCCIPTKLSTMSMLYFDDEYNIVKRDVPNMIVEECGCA
Assay: ELISA, coated antigen, OD450
Procedure: Antibodies were re-expressed in 40 mL cultures of Expi293 cells and purified using protein G magnetic sepharose beads (Cytiva, Marlborough, MA) to provide larger quantities for secondary screening. Secondary screening included dose responses in both functional assays described above (SMAD nuclear localization and fibroblast activations assays) as well as in binding assays to the same antigens listed in Table 3. […]
Reported fold-change of OD 450 over negative control (BSA) values for a set of binders
MEASURED_ATTRIBUTE: fold-change of OD 450 over negative control (BSA) (fold)

BINDER	MEASUREMENT_UNIT	TEST_VALUE
AB349 (antibody, IgG1, V domains shown) VH: QVQLQESGPGLVKPSQTLSLTCTVSGVSLSNARLGVNWIRQPPGKGLEWIGYGSVTGSTDYNPSLKSRVTMSVDTSKNQFSLKVNSVTAADTAVYYCTTSYLVDTAMVTRWGQGTLVTVSS VL: EIVMTQSPATLSLSPGERATLSCRASQRIGSDLAWYQQKPGQAPRLLIYSASSRAPGIPARFSGSGSGTDFTLTISSLEPEDFAVYYCSTMAIPFGGGTKVEIK	fold	0.27
AB338 (antibody, IgG1, V domains shown) VH: EVQLVESGGGLVQPGGSLRLSCAASGFTASRNYMSWVRQAPGKGLELVASISGSGDYTYYPDSVKGRFTISRDNAKNSLYLQMNSLRAEDTAVYYCARSPRGPRLLGYYYGMDVWGQGTTVTVSS VL: DIVMTQSPLSLPVTPGEPASISCRSSQSLLHSNEKNYLHWYLQKPGQSPQLLIYDASKRASGVPDRFSGSGSGTDFTLKISRVEAEDVGVYYCVQDLHTPFTFGGGTKVEIK	fold	0.68
